The values you see were collected from patent US20240116985A1.

assayed system: T1, B-cat-Halo (beta-catenin HaloTag construct expressed in HEK293 cells) (UniProt P35222 1-781)
T1 sequence (looked up): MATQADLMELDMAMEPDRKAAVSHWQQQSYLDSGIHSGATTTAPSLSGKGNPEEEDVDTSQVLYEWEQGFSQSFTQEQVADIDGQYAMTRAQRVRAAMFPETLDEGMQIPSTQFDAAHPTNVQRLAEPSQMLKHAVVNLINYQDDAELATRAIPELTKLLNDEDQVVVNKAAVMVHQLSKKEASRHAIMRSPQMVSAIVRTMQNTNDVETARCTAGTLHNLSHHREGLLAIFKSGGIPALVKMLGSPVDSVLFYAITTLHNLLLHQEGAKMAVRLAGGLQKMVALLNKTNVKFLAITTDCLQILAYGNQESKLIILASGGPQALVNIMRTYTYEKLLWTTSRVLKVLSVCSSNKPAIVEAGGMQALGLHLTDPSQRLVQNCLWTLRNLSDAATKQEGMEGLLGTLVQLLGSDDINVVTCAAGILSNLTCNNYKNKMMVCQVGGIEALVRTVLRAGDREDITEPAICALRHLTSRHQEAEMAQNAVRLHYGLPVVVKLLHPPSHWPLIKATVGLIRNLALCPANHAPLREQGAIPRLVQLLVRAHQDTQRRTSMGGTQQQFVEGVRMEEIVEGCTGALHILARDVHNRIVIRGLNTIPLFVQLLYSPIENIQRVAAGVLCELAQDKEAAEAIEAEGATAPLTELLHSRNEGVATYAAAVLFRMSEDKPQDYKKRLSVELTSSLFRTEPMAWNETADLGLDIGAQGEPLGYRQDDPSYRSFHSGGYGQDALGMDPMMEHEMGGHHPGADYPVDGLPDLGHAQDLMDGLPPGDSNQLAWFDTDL
assay remarks: cell-based or functional assay
Starred links: 1 amine or outer side, 2 acyl side, 3 side chain; linkers in the order of their positions; H or OH if unused. Positions of bridges follow the written chain, without caps; N, C: chain ends. Non-standard residues stand in square brackets, D forms with d. Primed or numbered codes have the meaning given here. PyrS2″ = (S)-3-amino-1-((pent-4-en-1-yloxy)carbonyl)pyrrolidine-3-carboxylic acid (stapling residue), C=CCCCOC(=O)N1CC[C@@](N[*:1])(C(=O)[*:2])C1; B5(4) = 2,2-bis(4-pentenyl)glycine = 2-amino-2-(pent-4-en-1-yl)hept-6-enoic acid (stitching residue), C=CCCCC(CCCC=C)(N[*:1])C(=O)[*:2]; B5(3) = 2,2-bis(4-pentenyl)glycine (stitching residue), C=CCCCC(CCCC=C)(N[*:1])C(=O)[*:2]; Phe(3-COOH) = N[C@@H](Cc1cccc(C(=O)O)c1)C(=O)O; 2F3MeF = Cc1cccc(C[C@H](N[*:1])C(=O)[*:2])c1F; Bta = N[C@@H](Cc1csc2ccccc12)C(=O)O; αAllylPro = C=CC[C@@]1(C(=O)O)CCCN1; tBuAla = CC(C)(C)C[C@H](N)C(=O)O; 3Thi = N[C@@H](Cc1ccsc1)C(=O)O; Cha = N[C@@H](CC1CCCCC1)C(=O)O; PyrS2(4) = not defined here; hSer = N[C@@H](CCO)C(=O)O
quantity kind: NanoBRET Abs IC50

Known results for binders:
{"binder": "Ac-[αAllylPro]D[tBuAla][B5(4)]D[Phe(3-COOH)]QAFL[PyrS2″][2F3MeF][Bta]A-NH2 (staple 1-4, 4-11) [I-2057]", "NanoBRET Abs IC50": "1.5 µM"}
{"binder": "Ac-[αAllylPro]D[tBuAla][B5(4)]D[Phe(3-COOH)]QAFL[PyrS2(4)][3Thi][Bta]V-NH2 (staple 1-4, 4-11; reading uncertain; also: printed as Ac-PL3-Asp-Npg-B5-Asp-3COOHF-Gln-Ala-Phe-Leu-PyrS2-3Thi-BztA-Val-NH2) [I-2055]", "NanoBRET Abs IC50": "10.5 µM"}

Item: Ac-[αAllylPro]N[Cha][B5(4)]DQQAFN[PyrS2″]F[Bta][hSer]-NH2 (staple 1-4, 4-11) [I-2067] | NanoBRET Abs IC50: > 20 µM

For Ac-[αAllylPro]D[tBuAla][B5(3)]D[Phe(3-COOH)]QAFF[PyrS2″][3Thi][Bta]A-NH2 (staple 1-4, 4-11) [I-2052] the binder record lists NanoBRET Abs IC50 as 6 µM
